assay: Intrinsic clearance in human hepatocytes at 1 uM assessed as per million cells after 2 to 60 mins by LC-MS/MS analysis; assay type: ADME, cell-based, Hepatocyte; details: read-out: CLH
Consider the following compounds; for each one, report its log10 of hepatocyte CLint at 1 µM.
log10 hepatocyte CLint at 1 µM, µL/min/1e6 cells

Query string: What does the data say about its log10 of hepatocyte CLint at 1 µM? Entry: COc1cc(N(CC2CC2)c2cccc(C(F)(F)F)c2)cnc1C(=O)[C@H]1C[C@@H]1C(=O)O
Result string: 0.36

Query string: What does the data say about its log10 of hepatocyte CLint at 1 µM? Entry: COc1cc(N(CC2CC2)c2ccc(F)c(Cl)c2)cnc1C(=O)[C@H]1C[C@@H]1C(=O)O
Result string: 0.49

Query string: What does the data say about its log10 of hepatocyte CLint at 1 µM? Entry: COc1cc(N(CC(C)C)c2cccc(C(F)(F)F)c2)cnc1C(=O)[C@H]1C[C@@H]1C(=O)O
Result string: 0.46

Query string: What does the data say about its log10 of hepatocyte CLint at 1 µM? Entry: COc1nc(C(=O)[C@@H]2C[C@H]2C(=O)O)ncc1N(CC1CC1)c1ccc(Cl)c2ccccc12 (relative stereo)
Result string: 1.18

Query string: What does the data say about its log10 of hepatocyte CLint at 1 µM? Entry: CCN(c1cnc(C(=O)[C@H]2C[C@@H]2C(=O)O)c(OC)c1)c1ccc(F)c2ccccc12
Result string: 0.58

Query string: What does the data say about its log10 of hepatocyte CLint at 1 µM? Entry: COc1cc(N(CC2CC2)c2cc(Cl)ccc2F)cnc1C(=O)[C@H]1C[C@@H]1C(=O)O
Result string: 0.11

Query string: What does the data say about its log10 of hepatocyte CLint at 1 µM? Entry: COc1cc(N(CC2CC2)c2ccc(Cl)cc2)cnc1C(=O)c1cccc(C(=O)O)c1
Result string: 1.45

Query string: What does the data say about its log10 of hepatocyte CLint at 1 µM? Entry: COc1cc(N(CC2CC2)c2ccc(F)c3ccccc23)cnc1C(=O)[C@H]1C[C@@H]1C(=O)O
Result string: 0.73

From: ChEMBL document CHEMBL4376816
